Test system: MOLT-4 leukemia
Experimental details: NCI tumour cell line growth inhibition, 48 h
Property: TGI

The examples below pair each entry with its known result.
Exercise: Find the measured TGI of COC(=O)c1c(O)ccc2c1c1c(n2-c2ccc(OC)cc2)C(=O)c2ccccc2C1=O and report it.
Key: > 100 µM

Exercise: Find the measured TGI of COc1ccc2c(c1)OC(N)=C(C#N)C2c1ccc(F)cc1 (stereo not drawn) and report it.
Key: > 100 µM

Exercise: Find the measured TGI of CN1CCN(CCCCN2c3ccccc3Sc3ccc(N=[N+]=[N-])cc32)CC1 and report it.
Key: 7.24 µM

Exercise: Find the measured TGI of Cc1cc(-c2nc3cc(O)ccc3s2)ccc1N and report it.
Key: > 100 µM

Exercise: Find the measured TGI of COc1cc(/C=C2\CC3C4CC[C@H]5C[C@@H](O)CC[C@]5(C)C4CC[C@]3(C)C2=O)cc(OC)c1OC (stereo partly drawn) and report it.
Key: 69.5 µM

Exercise: Find the measured TGI of Fc1ccc(Nc2nnc(-c3ccccn3)s2)cc1 and report it.
Key: > 100 µM

Continuing:
Exercise: Find the measured TGI of Cc1cc(N)ccc1C=O and report it.
Key: > 100 µM

Exercise: Find the measured TGI of O=C1C[C@H]2CC3(CC[C@H]2CN1)OCCO3 and report it.
Key: > 100 µM

Exercise: Find the measured TGI of O=C(NCP(=O)(O)O)c1cccnc1 and report it.
Key: > 100 µM

Exercise: Find the measured TGI of Cc1cc(=O)oc2cc(OCc3nc4ccccc4c(=O)[nH]3)ccc12 and report it.
Key: > 100 µM

Exercise: Find the measured TGI of COc1cc(-c2oc(C=Nc3ccccc3)c([N+](=O)[O-])c2-c2ccc(O)c(OC)c2)ccc1O and report it.
Key: > 84.7 µM

Exercise: Find the measured TGI of Clc1ccc(-c2nc3ccc(C45CC6CC(CC(C6)C4)C5)cc3[nH]2)cc1 and report it.
Key: > 100 µM

Exercise: Find the measured TGI of CCOC(=O)C(=CNC(=S)Nc1c(CC)cccc1CC)C(=O)OCC and report it.
Key: > 100 µM

====

Tested on: U251 CNS
Experimental details: NCI tumour cell line growth inhibition, 48 h
Recorded TGI by entry

Exercise: Find the measured TGI of Nc1cccc(C#Cc2cccc(C#Cc3cccc(N)n3)n2)n1 and report it.
Key: > 100 µM

Exercise: Find the measured TGI of CC(C)C[C@@H]1NC(=O)[C@@H]2CCCN2C(=O)[C@@H]2CCCN2C(=O)[C@H](CC(C)C)NC(=O)[C@H](CO)NC(=O)[C@H](CCCCN)NC(=O)[C@H]([C@H](C)O)NC(=O)[C@@H]2CCCC[C@@H](NC1=O)C(=O)N[C@@H](Cc1ccccc1)C(=O)N1CCC[C@H]1C(=O)N[C@@H](CC(=O)O)C(=O)NCC(=O)N[C@@H](CCCN=C(N)N)C(=O)N2 and report it.
Key: > 50 µM

Exercise: Find the measured TGI of Cc1ccc(N2C(=O)/C(=C/c3ccc(N(CCC#N)CCC#N)cc3C)N=C2c2cc([N+](=O)[O-])ccc2Cl)cc1 and report it.
Key: > 100 µM

====

System: PC-3 prostate
Experimental details: NCI tumour cell line growth inhibition, 48 h
Property: TGI

The examples below pair each entry with its known result.
Exercise: Find the measured TGI of O=C(/C=C(\O)c1ccc(Cl)cc1)C(=O)NN=C(c1ccccc1)c1ccccc1 and report it.
Key: > 100 µM

Exercise: Find the measured TGI of COc1cc(-c2oc3c(OC)c(O)c(OC)c(O)c3c(=O)c2OC)ccc1O and report it.
Key: > 100 µM

# next molecule below
Exercise: Find the measured TGI of NS(=O)(=O)c1nnc(/N=C(/CCC(=O)O)C(=O)O)s1 and report it.
Key: > 100 µM

====

Recorded GI50 by entry
System: HCT-116 colon
Experimental details: NCI tumour cell line growth inhibition, 48 h

The examples below pair each entry with its known result.
Exercise: Find the measured GI50 of CSC1C(=O)c2ccccc2/C(=N/Nc2nc3ccccc3s2)C1C (stereo unspecified) and report it.
Key: 4.67 µM

Exercise: Find the measured GI50 of OCCNCCNc1c2ccccc2nc2oc3ccccc3c12 and report it.
Key: 4.61 µM

Exercise: Find the measured GI50 of CCCCCCCCCCCC[n+]1ccc(C(N)=O)cc1 and report it.
Key: 4.58 µM

Exercise: Find the measured GI50 of OC(CNc1ccnc2cc(Cl)ccc12)CNC1CCCCC1 (stereo unspecified) and report it.
Key: 4.66 µM

Exercise: Find the measured GI50 of COC(=O)c1cc2oc(/C=C3\SC(=S)N(NC(C)=O)C3=O)cc2n1Cc1ccccc1 and report it.
Key: 7.62 µM

# next molecule below
Exercise: Find the measured GI50 of CS(=O)(=O)Nc1cc(-c2ccc3ncnc(Nc4ccc5c(cnn5Cc5ccccc5F)c4)c3c2)cnc1Cl and report it.
Key: 2.08 µM

====

Tested on: U251 CNS
Experimental details: NCI tumour cell line growth inhibition, 48 h
Property: TGI

The examples below pair each entry with its known result.
Exercise: Find the measured TGI of COc1cc(-c2oc3c(OC)c(O)c(OC)c(O)c3c(=O)c2OC)ccc1O and report it.
Key: > 100 µM

Exercise: Find the measured TGI of O=C(/C=C1/NC(=O)CS1)Nc1ccccc1 and report it.
Key: > 100 µM

# next compound below
Exercise: Find the measured TGI of CC12CC3CC(C1)CC(N=[N+]=[N-])(C3)C2 and report it.
Key: > 100 µM

====

Tested on: SK-OV-3 ovarian
Experimental details: NCI tumour cell line growth inhibition, 48 h
Property: TGI

The examples below pair each entry with its known result.
Exercise: Give the observed TGI of OC(C/C(=N\N=C(/CC(O)(C(F)(F)F)C(F)(F)F)c1ccccc1)c1ccccc1)(C(F)(F)F)C(F)(F)F for SK-OV-3 ovarian.
Key: > 10 µM

Exercise: Give the observed TGI of C[CH2][Sn]([CH2]C)([O]C(=O)c1cccc(F)c1)[O][Sn]([CH2]C)([CH2]C)[O]C(=O)c1cccc(F)c1 for SK-OV-3 ovarian.
Key: > 100 µM

Exercise: Give the observed TGI of O=C(N/C(=C\c1ccc(Oc2ccc(Cl)c(Cl)c2)cc1)c1nc2ccccc2[nH]1)c1ccccc1 for SK-OV-3 ovarian.
Key: 79.2 µM

Exercise: Give the observed TGI of CCCCCCCSCC1C(=O)C23C(O)C1CCC2C12COC3(O)C(O)C1C(C)(C)CCC2O (stereo not drawn) for SK-OV-3 ovarian.
Key: 32 µM

Exercise: Give the observed TGI of COc1cc([C@@H]2OC(=O)C3C2C(=O)O[C@H]3c2cc(OC)c(OC)c(OC)c2)cc(OC)c1OC (stereo partly drawn) for SK-OV-3 ovarian.
Key: > 100 µM

Exercise: Give the observed TGI of COC(=O)[C@@H](C)C[C@H](Cc1ccccc1)NC(=O)c1csc([C@@H](C[C@H](C(C)C)N(C)C(=O)C2(NC(=O)[C@H]3CCCCN3C)CC2)OC(C)=O)n1 for SK-OV-3 ovarian.
Key: < 0.00333 µM

Continuing:
Exercise: Give the observed TGI of CCN(CC)CCC(=O)c1ccc(Oc2ccccc2)cc1 for SK-OV-3 ovarian.
Key: > 100 µM

Exercise: Give the observed TGI of Cc1cc(N)ccc1C=O for SK-OV-3 ovarian.
Key: > 100 µM

Exercise: Give the observed TGI of NC(CCSC(F)F)C(=O)O (stereo not drawn) for SK-OV-3 ovarian.
Key: > 100 µM

Exercise: Give the observed TGI of O=C(CC(C(=O)c1cccs1)c1ccsc1)c1ccco1 (stereo not drawn) for SK-OV-3 ovarian.
Key: > 100 µM

Exercise: Give the observed TGI of CCOC(=O)c1nc2ccccc2nc1Oc1ccc(OC)cc1 for SK-OV-3 ovarian.
Key: > 100 µM

Exercise: Give the observed TGI of CCN1C[C@]2(C)CC[C@H](OCc3ccccc3)C34C5C[C@@H]6CC[C@](O)(C(C[C@@H]32)C14)C5[C@H]6OCc1ccccc1 (stereo partly drawn) for SK-OV-3 ovarian.
Key: > 100 µM

Exercise: Give the observed TGI of CC(C)(C)c1cc(C(=O)/C=C/c2ccc3c(c2)CCO3)cc(C(C)(C)C)c1O for SK-OV-3 ovarian.
Key: > 80.3 µM

====

Tested on: SW-620 colon
Experimental details: NCI tumour cell line growth inhibition, 48 h
Where a SMILES comes first, the peptide text is derived from it. The star is where a group is joined. Cbz = O=C(OCc1ccccc1)*
Property: TGI

The examples below pair each entry with its known result.
Exercise: Find the measured TGI of CCOC(=O)C(CC(=O)OC)NC(=O)C(CC(=O)OC)NC(=O)C(CC(=O)OC)NC(=O)C(CC(=O)OC)NC(=O)OCc1ccccc1 (stereo not drawn) (Cbz-D(OMe)D(OMe)D(OMe)D(OMe)-OEt; configuration not given here) and report it.
Key: > 100 µM

Exercise: Find the measured TGI of COc1cccc2c(=O)c3c(sc12)c(NCCN(C)C)nc1ccccc13 and report it.
Key: 2.3 µM

Continuing:
Exercise: Find the measured TGI of O=C1CCCC1NC(=O)C(F)(F)F (stereo not drawn) and report it.
Key: > 100 µM

Exercise: Find the measured TGI of O=C1C(=O)c2ccccc2C(O)=C1CCCCCCCCC1CCCCC1 and report it.
Key: 17.7 µM

Exercise: Find the measured TGI of Cc1nn(-c2nc3ccccc3[nH]2)c2c1C(c1ccc3c(c1)OCO3)CC(=O)N2 (stereo not drawn) and report it.
Key: 9.63 µM

Exercise: Find the measured TGI of O=C(N/N=C\c1ccc(N(CCCl)CCCl)cc1Cl)c1cccnc1 and report it.
Key: > 100 µM

Exercise: Find the measured TGI of Nc1ncc(CN2CCOCC2)c(-c2ccccc2O)n1 and report it.
Key: > 100 µM
